# Assay notes: Pharmacokinetic study of LGZGD components in plasma of normal and NAFLD rats after oral administration (UPLC-MS/MS)
# Assay type: in vivo, Male Sprague–Dawley rats
# Measurement context: male, Sprague-Dawley, rat, plasma, po, 23 g/kg, Normal group, male SD rats, oral LGZGD extract 23 g/kg, plasma, mean ± SD, n = 6; read-out: MRT0-t
Measured property: MRT last (h)

Completed entries (count: 5):
Compound	MRT last, h
O=C(O)/C=C/c1ccccc1	8.2
C=C(CC[C@@H](C(=O)O)[C@H]1[C@H](O)C[C@@]2(C)C3=CC[C@H]4C(C)(C)[C@@H](O)CC[C@]4(C)C3=CC[C@]12C)C(C)C [Dehydrotumulosic acid, dehydrotumulosic acid]	14.4
C=C1CCC[C@]2(C)C[C@]3(O)OC(=O)C(C)=C3C[C@@H]12 [Atractylenolide III, atractylenolide III]	14.7
CC1(C)[C@@H](O)CC[C@]2(C)[C@H]3C(=O)C=C4[C@@H]5C[C@@](C)(C(=O)O)CC[C@]5(C)CC[C@@]4(C)[C@]3(C)CC[C@@H]12	10.8
O=C(/C=C/c1ccc(O[C@@H]2O[C@H](CO)[C@@H](O)[C@H](O)[C@H]2O)cc1)c1ccc(O)cc1O	19.8

P. CC1(C)[C@@H](O[C@H]2O[C@H](C(=O)O)[C@@H](O)[C@H](O)[C@H]2O[C@@H]2O[C@H](C(=O)O)[C@@H](O)[C@H](O)[C@H]2O)CC[C@]2(C)[C@H]3C(=O)C=C4[C@@H]5C[C@@](C)(C(=O)O)CC[C@]5(C)CC[C@@]4(C)[C@]3(C)CC[C@@H]12
Q. O=C1C[C@@H](c2ccc(O[C@@H]3O[C@H](CO)[C@@H](O)[C@H](O)[C@H]3O)cc2)Oc2cc(O)ccc21
Prompt line: Which of these two has the smaller recorded MRT last: P or Q ? Lab log: write the label of the selected item as the result.
Response line: Q

---

# Assay notes: Stability of the seven components in rat plasma QC samples
# Assay type: physicochemical
# Measurement context: medium QC level, n = 6
Measured property: Three freeze–thaw cycles, RE (%)

Some molecules with recorded Three freeze–thaw cycles, RE:
Molecule	Readout units	Three freeze–thaw cycles, RE
CC1(C)[C@@H](O)CC[C@]2(C)[C@H]3C(=O)C=C4[C@@H]5C[C@@](C)(C(=O)O)CC[C@]5(C)CC[C@@]4(C)[C@]3(C)CC[C@@H]12	%	−7.7
C=C(CC[C@@H](C(=O)O)[C@H]1[C@H](O)C[C@@]2(C)C3=CC[C@H]4C(C)(C)[C@@H](O)CC[C@]4(C)C3=CC[C@]12C)C(C)C [Dehydrotumulosic acid, dehydrotumulosic acid]	%	−4.3
O=C(/C=C/c1ccc(O[C@@H]2O[C@H](CO)[C@@H](O)[C@H](O)[C@H]2O)cc1)c1ccc(O)cc1O	%	−3.0

P. O=C1C[C@@H](c2ccc(O[C@@H]3O[C@H](CO)[C@@H](O)[C@H](O)[C@H]3O)cc2)Oc2cc(O)ccc21
Q. C=C1CCC[C@]2(C)C[C@]3(O)OC(=O)C(C)=C3C[C@@H]12 [Atractylenolide III, atractylenolide III]
R. CC1(C)[C@@H](O[C@H]2O[C@H](C(=O)O)[C@@H](O)[C@H](O)[C@H]2O[C@@H]2O[C@H](C(=O)O)[C@@H](O)[C@H](O)[C@H]2O)CC[C@]2(C)[C@H]3C(=O)C=C4[C@@H]5C[C@@](C)(C(=O)O)CC[C@]5(C)CC[C@@]4(C)[C@]3(C)CC[C@@H]12
S. O=C(O)/C=C/c1ccccc1
Prompt line: I would appreciate it if you could sort these 4 molecules by Three freeze–thaw cycles, RE, starting from the smallest number. # output: labels, in the requested order
Response line: Q, R, P, S

---

# Assay notes: Stability of the seven components in rat plasma QC samples
# Type: physicochemical
# Measurement context: low QC level, n = 6
Measured property: Three freeze–thaw cycles, RE (%)

Compound	Three freeze–thaw cycles, RE / %
C=C(CC[C@@H](C(=O)O)[C@H]1[C@H](O)C[C@@]2(C)C3=CC[C@H]4C(C)(C)[C@@H](O)CC[C@]4(C)C3=CC[C@]12C)C(C)C [Dehydrotumulosic acid, dehydrotumulosic acid]	−12.8
O=C(O)/C=C/c1ccccc1	−0.4
CC1(C)[C@@H](O)CC[C@]2(C)[C@H]3C(=O)C=C4[C@@H]5C[C@@](C)(C(=O)O)CC[C@]5(C)CC[C@@]4(C)[C@]3(C)CC[C@@H]12	−0.4

---

# Assay notes: Pharmacokinetic study of LGZGD components in plasma of normal and NAFLD rats after oral administration (UPLC-MS/MS)
# Format: in vivo, Male Sprague–Dawley rats
# Measurement context: male, Sprague-Dawley, rat, plasma, po, 23 g/kg, Model (NAFLD) group, male SD rats, oral LGZGD extract 23 g/kg, plasma, mean ± SD, n = 6; read-out: MRT0-t
Measured property: MRT last (h)

The examples below pair each entry with its known result.
Molecule	Measured property	Readout number
O=C(O)/C=C/c1ccccc1 [Cinnamic acid, cinnamic acid]	MRT last	6.2
O=C(/C=C/c1ccc(O[C@@H]2O[C@H](CO)[C@@H](O)[C@H](O)[C@H]2O)cc1)c1ccc(O)cc1O [Isoliquiritin, isoliquiritin]	MRT last	15.5

I. C=C1CCC[C@]2(C)C[C@]3(O)OC(=O)C(C)=C3C[C@@H]12 [Atractylenolide III, atractylenolide III]
II. O=C1C[C@@H](c2ccc(O[C@@H]3O[C@H](CO)[C@@H](O)[C@H](O)[C@H]3O)cc2)Oc2cc(O)ccc21 [Liquiritin, liquiritin]
Prompt line: Between I and II , which one shows the larger MRT last value? To answer, give the label that identifies your chosen option.
Response line: I
(I: 19.3 h, II: 10.1 h)

---

# Assay notes: Pharmacokinetic study of LGZGD components in plasma of normal and NAFLD rats after oral administration (UPLC-MS/MS)
# Assay type: in vivo, Male Sprague–Dawley rats
# Measurement context: male, Sprague-Dawley, rat, plasma, po, 23 g/kg, Normal group, male SD rats, oral LGZGD extract 23 g/kg, plasma, mean ± SD, n = 6
Measured property: half-life (h)

I. C=C1CCC[C@]2(C)C[C@]3(O)OC(=O)C(C)=C3C[C@@H]12 [Atractylenolide III, atractylenolide III]
II. CC1(C)[C@@H](O)CC[C@]2(C)[C@H]3C(=O)C=C4[C@@H]5C[C@@](C)(C(=O)O)CC[C@]5(C)CC[C@@]4(C)[C@]3(C)CC[C@@H]12 [Glycyrrhetinic acid, glycyrrhetinic acid]
Prompt line: Lower value for measured half-life? Options: I , II Give the chosen item's label as your response.
Response line: II
(II: 6 h, I: 10.2 h)

---

# Assay notes: Pharmacokinetic study of LGZGD components in plasma of normal and NAFLD rats after oral administration (UPLC-MS/MS)
# Format: in vivo, Male Sprague–Dawley rats
# Measurement context: male, Sprague-Dawley, rat, plasma, po, 23 g/kg, Model (NAFLD) group, male SD rats, oral LGZGD extract 23 g/kg, plasma, mean ± SD, n = 6
Measured property: Cmax (ng/mL)

Before answering, review these 3 worked examples.
Compound	Readout units	Cmax
C=C(CC[C@@H](C(=O)O)[C@H]1[C@H](O)C[C@@]2(C)C3=CC[C@H]4C(C)(C)[C@@H](O)CC[C@]4(C)C3=CC[C@]12C)C(C)C [Dehydrotumulosic acid, dehydrotumulosic acid]	ng/mL	3.8
CC1(C)[C@@H](O[C@H]2O[C@H](C(=O)O)[C@@H](O)[C@H](O)[C@H]2O[C@@H]2O[C@H](C(=O)O)[C@@H](O)[C@H](O)[C@H]2O)CC[C@]2(C)[C@H]3C(=O)C=C4[C@@H]5C[C@@](C)(C(=O)O)CC[C@]5(C)CC[C@@]4(C)[C@]3(C)CC[C@@H]12 [Glycyrrhizic acid, glycyrrhizic acid]	ng/mL	2240
CC1(C)[C@@H](O)CC[C@]2(C)[C@H]3C(=O)C=C4[C@@H]5C[C@@](C)(C(=O)O)CC[C@]5(C)CC[C@@]4(C)[C@]3(C)CC[C@@H]12 [Glycyrrhetinic acid, glycyrrhetinic acid]	ng/mL	1650

a. O=C(O)/C=C/c1ccccc1 [Cinnamic acid, cinnamic acid]
b. O=C1C[C@@H](c2ccc(O[C@@H]3O[C@H](CO)[C@@H](O)[C@H](O)[C@H]3O)cc2)Oc2cc(O)ccc21 [Liquiritin, liquiritin]
c. C=C1CCC[C@]2(C)C[C@]3(O)OC(=O)C(C)=C3C[C@@H]12 [Atractylenolide III, atractylenolide III]
Prompt line: Order each entry by recorded Cmax, climbing from the minimum. Provide your answer as the labels ordered per the instruction.
Response line: c, a, b

---

# Assay notes: Stability of the seven components in rat plasma QC samples
# Format: physicochemical
# Measurement context: auto sampler, low QC level, n = 6
Measured property: Stability during 24 h at 4°C, RE (%)

Consider the following illustrative entries.
Compound	Stability during 24 h at 4°C, RE [%]
C=C(CC[C@@H](C(=O)O)[C@H]1[C@H](O)C[C@@]2(C)C3=CC[C@H]4C(C)(C)[C@@H](O)CC[C@]4(C)C3=CC[C@]12C)C(C)C [Dehydrotumulosic acid, dehydrotumulosic acid]	3.8
C=C1CCC[C@]2(C)C[C@]3(O)OC(=O)C(C)=C3C[C@@H]12 [Atractylenolide III, atractylenolide III]	6.4
CC1(C)[C@@H](O[C@H]2O[C@H](C(=O)O)[C@@H](O)[C@H](O)[C@H]2O[C@@H]2O[C@H](C(=O)O)[C@@H](O)[C@H](O)[C@H]2O)CC[C@]2(C)[C@H]3C(=O)C=C4[C@@H]5C[C@@](C)(C(=O)O)CC[C@]5(C)CC[C@@]4(C)[C@]3(C)CC[C@@H]12 [Glycyrrhizic acid, glycyrrhizic acid]	−1.6
O=C(/C=C/c1ccc(O[C@@H]2O[C@H](CO)[C@@H](O)[C@H](O)[C@H]2O)cc1)c1ccc(O)cc1O [Isoliquiritin, isoliquiritin]	1.3

1. O=C(O)/C=C/c1ccccc1 [Cinnamic acid, cinnamic acid]
2. CC1(C)[C@@H](O)CC[C@]2(C)[C@H]3C(=O)C=C4[C@@H]5C[C@@](C)(C(=O)O)CC[C@]5(C)CC[C@@]4(C)[C@]3(C)CC[C@@H]12 [Glycyrrhetinic acid, glycyrrhetinic acid]
3. O=C1C[C@@H](c2ccc(O[C@@H]3O[C@H](CO)[C@@H](O)[C@H](O)[C@H]3O)cc2)Oc2cc(O)ccc21 [Liquiritin, liquiritin]
Prompt line: Please list these in order of increasing Stability during 24 h at 4°C, RE. Thank you! Would you mind listing the labels in the order requested?
Response line: 3, 2, 1
(3: 1.4%, 2: 5.2%, 1: 8.4%)
